Ref: patent US9365619B2

Target: human IgG
Assay: Surface plasmon resonance (SPR) analysis of synthetic peptide binding to human IgG
Details: SPR, synthetic peptide binding to human IgG; read-out: Kd
Experimental: In order to narrow down the amino acid region to be studied, a peptide in which one amino acid was deleted from each end of GFc-C35 (GFc-C35-2/16) and a peptide in which two amino acids were deleted from each end of CFc-C35 (GFc-C35-3/15) were synthesized. Among these peptides, based on the GFc-C35-3/15 synthetic peptide, the effect of the introduction of amino acid mutations on affinity was evaluated. […]
Bridge positions count the residues as written; N and C are the ends. Peptide text beside a SMILES is read from it.
# Kd annotations
Just the number please, in µM, no unit attached.

Example results:
molecule	test.target	result.unit	Kd
CC(C)C[C@@H]1NC(=O)[C@H](CC(N)=O)NC(=O)CNC(=O)[C@H](CCCNC(=N)N)NC(=O)[C@H](Cc2c[nH]cn2)NC(=O)[C@H](Cc2ccc(O)cc2)NC(=O)[C@H](C)NC(=O)[C@@H](NC(=O)[C@@H](N)CC(=O)O)CSSC[C@@H](C(=O)N[C@H](C(N)=O)[C@@H](C)O)NC(=O)[C@H](Cc2c[nH]c3ccccc23)NC(=O)[C@H](C(C)C)NC1=O [GFc-C35-3/15 (T7H, N8R, T5A), DCAYHRGNLVWCT] (H-DCAYHRGNLVWCT-NH2; disulfide 2-12)	human IgG	µM	0.25
CC(C)C[C@@H]1NC(=O)[C@H](CC(N)=O)NC(=O)CNC(=O)[C@H](CC(N)=O)NC(=O)[C@H]([C@@H](C)O)NC(=O)[C@H](Cc2ccccc2)NC(=O)[C@H]([C@@H](C)O)NC(=O)[C@@H](NC(=O)[C@@H](N)CC(=O)O)CSSC[C@@H](C(=O)N[C@H](C(N)=O)[C@@H](C)O)NC(=O)[C@H](Cc2c[nH]c3ccccc23)NC(=O)[C@H](C(C)C)NC1=O [GFc-C35-3/15 (Y6F), DCTFTNGNLVWCT] (H-DCTFTNGNLVWCT-NH2; disulfide 2-12)	human IgG	µM	2100
CC(C)C[C@@H]1NC(=O)[C@H](CCCNC(=N)N)NC(=O)CNC(=O)[C@H](CC(N)=O)NC(=O)[C@H]([C@@H](C)O)NC(=O)[C@H](Cc2ccc(O)cc2)NC(=O)[C@H]([C@@H](C)O)NC(=O)[C@@H](NC(=O)[C@@H](N)CC(=O)O)CSSC[C@@H](C(=O)N[C@H](C(N)=O)[C@@H](C)O)NC(=O)[C@H](Cc2c[nH]c3ccccc23)NC(=O)[C@H](C(C)C)NC1=O [GFc-C35-3/15 (N10R), DCTYTNGRLVWCT] (H-DCTYTNGRLVWCT-NH2; disulfide 2-12)	human IgG	µM	42
CC(C)C[C@@H]1NC(=O)[C@H](CC(N)=O)NC(=O)CNC(=O)[C@H](CC(N)=O)NC(=O)[C@H](Cc2c[nH]cn2)NC(=O)[C@H](Cc2ccc(O)cc2)NC(=O)[C@H]([C@@H](C)O)NC(=O)[C@@H](NC(=O)[C@@H](N)CC(=O)O)CSSC[C@@H](C(=O)N[C@H](C(N)=O)[C@@H](C)O)NC(=O)[C@H](Cc2c[nH]c3ccccc23)NC(=O)[C@H](C(C)C)NC1=O [GFc-C35-3/15 (T7H), DCTYHNGNLVWCT] (H-DCTYHNGNLVWCT-NH2; disulfide 2-12)	human IgG	µM	3

Looking up CC(C)C[C@@H]1NC(=O)[C@H](CC(N)=O)NC(=O)CNC(=O)[C@H](CC(N)=O)NC(=O)[C@H](CO)NC(=O)[C@H](Cc2ccc(O)cc2)NC(=O)[C@H]([C@@H](C)O)NC(=O)[C@@H](NC(=O)[C@@H](N)CC(=O)O)CSSC[C@@H](C(=O)N[C@H](C(N)=O)[C@@H](C)O)NC(=O)[C@H](Cc2c[nH]c3ccccc23)NC(=O)[C@H](C(C)C)NC1=O [GFc-C35-3/15 (T7S), DCTYSNGNLVWCT] (H-DCTYSNGNLVWCT-NH2; disulfide 2-12) , I found its Kd recorded as 26

Looking up CC(C)C[C@@H]1NC(=O)[C@H](CC(N)=O)NC(=O)CNC(=O)[C@H](CCCNC(=N)N)NC(=O)[C@H](Cc2c[nH]cn2)NC(=O)[C@H](Cc2ccc(O)cc2)NC(=O)[C@H]([C@@H](C)O)NC(=O)[C@@H](NC(=O)[C@@H](N)CC(=O)O)CSSC[C@@H](C(=O)N[C@H](C(N)=O)[C@@H](C)O)NC(=O)[C@H](Cc2c[nH]c3ccccc23)NC(=O)[C@H](C(C)C)NC1=O [GFc-C35-3/15 (T7H, N8R), DCTYHRGNLVWCT] (H-DCTYHRGNLVWCT-NH2; disulfide 2-12) , I found its Kd recorded as 1.1

Looking up CC(C)C[C@@H]1NC(=O)[C@H](CC(N)=O)NC(=O)CNC(=O)[C@H](CCCNC(=N)N)NC(=O)[C@H](Cc2c[nH]cn2)NC(=O)[C@H](Cc2c[nH]c3ccccc23)NC(=O)[C@H]([C@@H](C)O)NC(=O)[C@@H](NC(=O)[C@@H](N)CC(=O)O)CSSC[C@@H](C(=O)N[C@H](C(N)=O)[C@@H](C)O)NC(=O)[C@H](Cc2c[nH]c3ccccc23)NC(=O)[C@H](C(C)C)NC1=O [GFc-C35-3/15 (T7H, N8R, Y6W), DCTWHRGNLVWCT] (H-DCTWHRGNLVWCT-NH2; disulfide 2-12) , I found its Kd recorded as 2

Looking up CC(C)C[C@@H]1NC(=O)[C@H](CC(=O)O)NC(=O)CNC(=O)[C@H](CC(N)=O)NC(=O)[C@H]([C@@H](C)O)NC(=O)[C@H](Cc2ccc(O)cc2)NC(=O)[C@H]([C@@H](C)O)NC(=O)[C@@H](NC(=O)[C@@H](N)CC(=O)O)CSSC[C@@H](C(=O)N[C@H](C(N)=O)[C@@H](C)O)NC(=O)[C@H](Cc2c[nH]c3ccccc23)NC(=O)[C@H](C(C)C)NC1=O [GFc-C35-3/15 (N10D), DCTYTNGDLVWCT] (H-DCTYTNGDLVWCT-NH2; disulfide 2-12) , I found its Kd recorded as 80

Looking up CC(C)C[C@@H]1NC(=O)[C@H](CCC(=O)O)NC(=O)CNC(=O)[C@H](CCCNC(=N)N)NC(=O)[C@H](Cc2c[nH]cn2)NC(=O)[C@H](Cc2ccc(O)cc2)NC(=O)[C@H]([C@@H](C)O)NC(=O)[C@@H](NC(=O)[C@@H](N)CC(=O)O)CSSC[C@@H](C(=O)N[C@H](C(N)=O)[C@@H](C)O)NC(=O)[C@H](Cc2c[nH]c3ccccc23)NC(=O)[C@H](C(C)C)NC1=O [GFc-C35-3/15 (T7H, N8R, N10E), DCTYHRGELVWCT] (H-DCTYHRGELVWCT-NH2; disulfide 2-12) , I found its Kd recorded as 0.27
